Measured target: Histone deacetylase 3/Nuclear receptor corepressor 2 (HDAC3/NCoR2) (Homo sapiens)
Sequence (O15379 whole entry): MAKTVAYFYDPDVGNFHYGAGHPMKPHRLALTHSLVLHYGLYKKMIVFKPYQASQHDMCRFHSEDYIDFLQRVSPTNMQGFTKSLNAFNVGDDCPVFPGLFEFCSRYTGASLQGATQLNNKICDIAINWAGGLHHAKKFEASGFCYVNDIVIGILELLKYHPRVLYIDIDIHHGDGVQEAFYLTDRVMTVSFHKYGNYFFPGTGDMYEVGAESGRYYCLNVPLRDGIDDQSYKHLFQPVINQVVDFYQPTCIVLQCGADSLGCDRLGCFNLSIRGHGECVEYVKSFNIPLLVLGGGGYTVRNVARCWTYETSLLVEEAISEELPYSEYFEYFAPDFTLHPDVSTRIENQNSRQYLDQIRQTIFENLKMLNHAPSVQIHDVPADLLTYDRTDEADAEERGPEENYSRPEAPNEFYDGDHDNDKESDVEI
Sequence (Q9Y618 whole entry, further chain): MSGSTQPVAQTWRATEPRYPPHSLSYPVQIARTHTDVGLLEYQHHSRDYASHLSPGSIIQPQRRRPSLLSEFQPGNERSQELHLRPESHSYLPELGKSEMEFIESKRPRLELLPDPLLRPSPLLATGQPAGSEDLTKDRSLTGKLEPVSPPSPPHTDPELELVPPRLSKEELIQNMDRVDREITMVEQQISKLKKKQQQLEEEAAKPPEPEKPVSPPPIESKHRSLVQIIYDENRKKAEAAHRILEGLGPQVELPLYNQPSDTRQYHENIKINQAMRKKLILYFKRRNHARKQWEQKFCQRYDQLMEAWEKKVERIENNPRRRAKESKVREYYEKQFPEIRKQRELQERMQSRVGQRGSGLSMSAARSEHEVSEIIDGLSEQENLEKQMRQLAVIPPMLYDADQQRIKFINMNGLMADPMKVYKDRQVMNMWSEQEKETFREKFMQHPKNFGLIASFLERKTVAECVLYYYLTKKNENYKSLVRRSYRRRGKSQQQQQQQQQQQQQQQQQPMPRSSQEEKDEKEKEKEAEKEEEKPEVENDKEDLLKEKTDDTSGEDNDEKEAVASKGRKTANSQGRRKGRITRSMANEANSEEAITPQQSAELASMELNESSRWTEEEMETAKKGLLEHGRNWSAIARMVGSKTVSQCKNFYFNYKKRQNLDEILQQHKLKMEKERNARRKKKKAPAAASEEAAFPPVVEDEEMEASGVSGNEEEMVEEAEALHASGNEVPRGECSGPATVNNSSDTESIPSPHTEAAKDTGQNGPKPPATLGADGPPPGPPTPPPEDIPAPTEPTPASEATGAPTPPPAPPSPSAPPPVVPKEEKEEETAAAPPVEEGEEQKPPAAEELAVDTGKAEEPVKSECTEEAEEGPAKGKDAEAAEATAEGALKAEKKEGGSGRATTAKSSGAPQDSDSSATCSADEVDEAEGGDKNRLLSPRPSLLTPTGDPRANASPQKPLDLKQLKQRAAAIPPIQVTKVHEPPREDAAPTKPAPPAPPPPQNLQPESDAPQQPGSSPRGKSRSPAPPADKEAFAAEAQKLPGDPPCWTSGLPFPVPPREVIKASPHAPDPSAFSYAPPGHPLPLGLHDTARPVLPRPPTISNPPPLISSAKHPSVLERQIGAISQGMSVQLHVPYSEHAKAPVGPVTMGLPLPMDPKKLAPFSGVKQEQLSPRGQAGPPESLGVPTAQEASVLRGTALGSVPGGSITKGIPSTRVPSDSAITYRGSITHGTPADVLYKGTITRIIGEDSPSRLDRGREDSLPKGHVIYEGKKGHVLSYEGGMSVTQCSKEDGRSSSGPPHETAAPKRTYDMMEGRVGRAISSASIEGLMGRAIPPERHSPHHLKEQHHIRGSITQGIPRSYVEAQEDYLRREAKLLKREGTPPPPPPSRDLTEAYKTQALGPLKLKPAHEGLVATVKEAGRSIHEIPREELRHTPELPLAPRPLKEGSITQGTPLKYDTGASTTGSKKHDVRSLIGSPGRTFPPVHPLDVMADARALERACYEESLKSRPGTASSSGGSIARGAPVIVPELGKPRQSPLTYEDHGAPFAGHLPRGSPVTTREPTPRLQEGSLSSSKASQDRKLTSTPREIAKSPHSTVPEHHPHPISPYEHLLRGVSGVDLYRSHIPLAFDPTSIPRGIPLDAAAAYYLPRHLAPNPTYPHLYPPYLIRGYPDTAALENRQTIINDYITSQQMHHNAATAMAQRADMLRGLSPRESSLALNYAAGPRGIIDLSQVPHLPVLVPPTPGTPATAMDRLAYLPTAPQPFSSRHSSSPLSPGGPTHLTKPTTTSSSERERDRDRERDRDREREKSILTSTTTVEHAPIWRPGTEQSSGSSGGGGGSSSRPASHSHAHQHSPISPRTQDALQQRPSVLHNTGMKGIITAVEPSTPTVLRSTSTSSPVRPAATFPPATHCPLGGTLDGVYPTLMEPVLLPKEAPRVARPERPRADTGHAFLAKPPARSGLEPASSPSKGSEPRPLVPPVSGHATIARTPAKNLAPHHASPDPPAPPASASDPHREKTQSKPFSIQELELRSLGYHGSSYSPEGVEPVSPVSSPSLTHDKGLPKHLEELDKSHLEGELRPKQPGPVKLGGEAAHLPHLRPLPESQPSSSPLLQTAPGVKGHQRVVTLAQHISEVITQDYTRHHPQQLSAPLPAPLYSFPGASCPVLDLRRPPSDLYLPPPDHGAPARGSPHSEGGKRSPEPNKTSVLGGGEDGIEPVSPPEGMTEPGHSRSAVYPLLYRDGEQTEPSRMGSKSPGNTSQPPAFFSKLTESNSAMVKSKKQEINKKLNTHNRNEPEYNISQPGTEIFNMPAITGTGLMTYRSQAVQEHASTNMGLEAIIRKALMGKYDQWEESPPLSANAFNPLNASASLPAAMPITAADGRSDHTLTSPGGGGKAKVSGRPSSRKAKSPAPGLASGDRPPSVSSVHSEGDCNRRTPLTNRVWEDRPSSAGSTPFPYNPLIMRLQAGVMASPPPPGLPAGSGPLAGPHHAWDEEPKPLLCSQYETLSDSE
Experiment notes: biochemical
Result type: IC50 (nM)
Only the number, expressed in nM, is required.

Please give the documented IC50 of O=C(/C=C/c1ccc(CNCCCN2c3ccccc3CCc3ccc(Cl)cc32)cc1)NO
2860

###

Experiment notes: Tmax in Sprague-Dawley rat at 10 mg/kg, po measured up to 24 hrs
Format: ADME, organism-based
Measurement conditions: in vivo
Result type: Tmax (h)
Only the number, expressed in h, is required.

Please give the documented Tmax of O=C(/C=C/c1ccc(CNCCCN2c3ccccc3CCc3ccc(Cl)cc32)cc1)NO
3.5
